target: ~100 representative kinases (Homo sapiens, UniProt Q9H2X6); construct: Recombinant protein kinase domains with a concentration of 2 μM; assay: DSF 100 kinase selectivity screen; assay type: binding; conditions: protein HIPK2; average of three replicates;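 note: compound tested at 20 µM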
Sequence (Q9H2X6 whole entry, the tested form may be a part): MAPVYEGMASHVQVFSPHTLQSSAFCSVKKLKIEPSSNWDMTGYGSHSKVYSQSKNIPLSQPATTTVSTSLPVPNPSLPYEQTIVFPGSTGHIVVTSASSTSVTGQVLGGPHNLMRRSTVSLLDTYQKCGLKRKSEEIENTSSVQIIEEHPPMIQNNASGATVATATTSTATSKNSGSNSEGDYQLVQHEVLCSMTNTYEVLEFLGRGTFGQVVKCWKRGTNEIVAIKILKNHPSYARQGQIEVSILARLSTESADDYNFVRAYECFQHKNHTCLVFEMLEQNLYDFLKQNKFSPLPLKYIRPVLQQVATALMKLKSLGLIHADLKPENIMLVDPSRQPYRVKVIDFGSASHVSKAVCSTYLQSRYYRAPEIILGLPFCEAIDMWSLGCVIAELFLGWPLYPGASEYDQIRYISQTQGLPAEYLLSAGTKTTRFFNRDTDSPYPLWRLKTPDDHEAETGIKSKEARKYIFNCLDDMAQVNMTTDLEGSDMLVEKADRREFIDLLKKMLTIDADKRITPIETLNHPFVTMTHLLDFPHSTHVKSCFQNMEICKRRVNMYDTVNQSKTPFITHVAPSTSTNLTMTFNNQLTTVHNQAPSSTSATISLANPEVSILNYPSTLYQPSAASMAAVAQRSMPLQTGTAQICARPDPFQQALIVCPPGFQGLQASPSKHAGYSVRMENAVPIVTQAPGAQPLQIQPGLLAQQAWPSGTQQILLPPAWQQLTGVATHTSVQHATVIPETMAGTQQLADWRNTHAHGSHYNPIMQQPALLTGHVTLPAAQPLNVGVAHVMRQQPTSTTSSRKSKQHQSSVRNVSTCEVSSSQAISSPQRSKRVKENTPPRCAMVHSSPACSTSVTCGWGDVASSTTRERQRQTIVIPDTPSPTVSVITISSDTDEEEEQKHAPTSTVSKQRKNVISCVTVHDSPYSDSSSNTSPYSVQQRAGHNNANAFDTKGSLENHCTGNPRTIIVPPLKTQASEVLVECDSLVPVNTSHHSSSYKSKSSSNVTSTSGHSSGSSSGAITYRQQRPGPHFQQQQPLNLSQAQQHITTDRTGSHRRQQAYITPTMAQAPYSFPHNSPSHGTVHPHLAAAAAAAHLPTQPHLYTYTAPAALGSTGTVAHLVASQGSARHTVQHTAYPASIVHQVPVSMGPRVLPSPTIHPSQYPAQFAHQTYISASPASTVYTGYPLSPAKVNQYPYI
Classes based on dTm: LOW = under 0.9 K, MID = from 0.9 K up to 4 K, HIGH = 4 K and over

compound=CC(C)(C)c1cccc(NC(=O)C2(C(=O)Nc3cccc(-c4c[nH]c5ncnc(N6CCOCC6)c45)c3)CC2)c1 group=MID
compound=C[C@@H]1CN(c2cc(-c3n[nH]c4ccc(OC5(C)CC5)cc34)ncn2)C[C@H](C)O1 group=LOW
compound=Cc1cc(F)ccc1NC(=O)C1(C(=O)Nc2cccc(-c3c[nH]c4ncnc(N5CCOCC5)c34)c2)CC1 group=HIGH
compound=Cc1ccc(NC(=O)C2(C(=O)Nc3cccc(-c4c[nH]c5ncnc(N6CCOCC6)c45)c3)CC2)cc1 group=HIGH
compound=Cn1cc(-c2c[nH]c3ncnc(N4CCOCC4)c23)cc1C#N group=LOW
compound="COc1cc2c(Oc3ccc(NC(=O)C4(C(=O)Nc5ccc(F)cc5)CC4)cc3F)ccnc2cc1OCCCN1CCOCC1 [Foretinib, reference compound]" group=HIGH
compound=COc1cc(S(C)(=O)=O)ccc1Nc1nc(N(C)C)c2c(Cl)c[nH]c2n1 group=LOW
compound=O=C(Nc1cccc(-c2c[nH]c3ncnc(N4CCOCC4)c23)c1)C1(C(=O)Nc2cccc3c2CCC3)CC1 group=MID
compound=CCc1ccc(NC(=O)C2(C(=O)Nc3cccc(-c4c[nH]c5ncnc(N6CCOCC6)c45)c3)CC2)cc1 group=HIGH
compound=O=C(Nc1cc(F)cc(Br)c1)C1(C(=O)Nc2cccc(-c3c[nH]c4ncnc(N5CCOCC5)c34)c2)CC1 group=MID
compound=CN[C@@H]1C[C@H]2O[C@@](C)([C@@H]1OC)n1c3ccccc3c3c4c(c5c6ccccc6n2c5c31)C(=O)NC4 group=HIGH
compound=COc1cc(C(=O)N2CCOCC2)c(F)cc1Nc1nc(N(C)C)c2c(Cl)c[nH]c2n1 group=MID
compound=O=C(Nc1ccc(Cl)cc1)C1(C(=O)Nc2cccc(-c3c[nH]c4ncnc(N5CCOCC5)c34)c2)CC1 group=HIGH
compound=CCNc1nc(Nc2cc(F)c(C(=O)N3CCOCC3)cc2OC)ncc1C(F)(F)F group=LOW
compound=Cc1cc(NC(=O)C2(C(=O)Nc3ccc(F)cc3)CC2)cc(-c2c[nH]c3ncnc(N4CCOCC4)c23)c1 group=LOW

###

target: ~100 representative kinases (Homo sapiens, UniProt Q8TDX7); construct: Recombinant protein kinase domains with a concentration of 2 μM; test: DSF 100 kinase selectivity screen; type: binding; conditions: protein NEK7; average of three replicates;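 note: compound tested at 20 µM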
Sequence (Q8TDX7 whole entry, the tested form may be a part): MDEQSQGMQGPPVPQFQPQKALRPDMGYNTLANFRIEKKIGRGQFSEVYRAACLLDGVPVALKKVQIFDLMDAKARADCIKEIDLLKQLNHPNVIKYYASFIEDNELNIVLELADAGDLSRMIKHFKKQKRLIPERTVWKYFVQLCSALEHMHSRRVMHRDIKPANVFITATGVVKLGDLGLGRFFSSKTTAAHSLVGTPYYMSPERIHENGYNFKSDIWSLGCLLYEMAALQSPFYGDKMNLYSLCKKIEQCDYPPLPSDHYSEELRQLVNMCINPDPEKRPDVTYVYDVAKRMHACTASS
Please enter condition met where dTm is greater than or equal to 0.3 K, and condition not met where it is lower.

molecule=O=C(Nc1cccc(-c2c[nH]c3ncnc(N4CCOCC4)c23)c1)C1(C(=O)Nc2ccc(F)c(F)c2)CC1 group="condition met"
molecule=Cc1ccc(C(=O)Nc2ccc(CN3CCN(C)CC3)c(C(F)(F)F)c2)cc1C#Cc1c[nH]c2ncnc(N3CCOCC3)c12 group="condition met"
molecule=O=C(Nc1cccc(-c2c[nH]c3ncnc(N4CCOCC4)c23)c1)C1(C(=O)Nc2cccc3c2CCC3)CC1 group="condition met"
molecule=O=C(Nc1ccccc1)C1(C(=O)Nc2cccc(-c3c[nH]c4ncnc(N5CCOCC5)c34)c2)CC1 group="condition not met"
molecule=O=C(Nc1cccc(-c2c[nH]c3ncnc(N4CCOCC4)c23)c1)C1(C(=O)Nc2cc(Br)c(F)cc2F)CC1 group="condition not met"
molecule="COc1cc2c(Oc3ccc(NC(=O)C4(C(=O)Nc5ccc(F)cc5)CC4)cc3F)ccnc2cc1OCCCN1CCOCC1 [Foretinib, reference compound]" group="condition not met"
molecule=CCNc1nc(Nc2cc(F)c(C(=O)N3CCOCC3)cc2OC)ncc1C(F)(F)F group="condition met"

Origin of values: paper PMC12136037
